pIC50: −log10 of the molar value.
# pIC50 per entry for UniProtKB P08253
# Sequence (P08253 whole entry): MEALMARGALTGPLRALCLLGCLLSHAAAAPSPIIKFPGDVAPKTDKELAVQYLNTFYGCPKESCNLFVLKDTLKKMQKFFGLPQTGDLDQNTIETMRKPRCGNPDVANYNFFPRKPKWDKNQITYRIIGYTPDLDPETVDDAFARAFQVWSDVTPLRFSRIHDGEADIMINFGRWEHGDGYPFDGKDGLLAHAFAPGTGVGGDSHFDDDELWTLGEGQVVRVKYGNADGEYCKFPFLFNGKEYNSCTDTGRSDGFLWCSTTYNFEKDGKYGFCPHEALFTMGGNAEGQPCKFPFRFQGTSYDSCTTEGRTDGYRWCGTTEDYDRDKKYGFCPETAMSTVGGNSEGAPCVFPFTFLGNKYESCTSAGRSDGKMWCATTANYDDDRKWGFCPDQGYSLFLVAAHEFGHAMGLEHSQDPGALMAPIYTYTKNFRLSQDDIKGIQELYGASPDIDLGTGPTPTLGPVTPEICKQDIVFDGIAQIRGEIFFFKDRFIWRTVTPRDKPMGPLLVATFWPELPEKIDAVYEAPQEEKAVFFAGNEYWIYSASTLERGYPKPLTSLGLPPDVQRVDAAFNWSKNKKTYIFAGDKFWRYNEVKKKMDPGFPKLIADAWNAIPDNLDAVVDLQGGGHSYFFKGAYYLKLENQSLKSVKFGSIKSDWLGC

# structure_as_smiles, inequality_operator, pIC50
data = [
    ("Cn1c(=O)n(Cc2ccc(C(=O)O)cc2)c(=O)c2cc(C#CCc3ccccc3)ccc21", "<", 4.52),
    ("CC(C)N(C)c1ccc(-c2cn(-c3ccc(S(=O)(=O)C4(C(=O)NO)CCNCC4)cc3)nn2)cc1", "=", 8.52),
    ("CN(C)c1ccc(-c2cn(-c3ccc(S(=O)(=O)C4(C(=O)NO)CCNCC4)cc3)nn2)cc1", "=", 8.77),
]

###

# test_target: Matrix metalloproteinase-17 (Homo sapiens, UniProt Q9ULZ9)
# Sequence (Q9ULZ9 whole entry): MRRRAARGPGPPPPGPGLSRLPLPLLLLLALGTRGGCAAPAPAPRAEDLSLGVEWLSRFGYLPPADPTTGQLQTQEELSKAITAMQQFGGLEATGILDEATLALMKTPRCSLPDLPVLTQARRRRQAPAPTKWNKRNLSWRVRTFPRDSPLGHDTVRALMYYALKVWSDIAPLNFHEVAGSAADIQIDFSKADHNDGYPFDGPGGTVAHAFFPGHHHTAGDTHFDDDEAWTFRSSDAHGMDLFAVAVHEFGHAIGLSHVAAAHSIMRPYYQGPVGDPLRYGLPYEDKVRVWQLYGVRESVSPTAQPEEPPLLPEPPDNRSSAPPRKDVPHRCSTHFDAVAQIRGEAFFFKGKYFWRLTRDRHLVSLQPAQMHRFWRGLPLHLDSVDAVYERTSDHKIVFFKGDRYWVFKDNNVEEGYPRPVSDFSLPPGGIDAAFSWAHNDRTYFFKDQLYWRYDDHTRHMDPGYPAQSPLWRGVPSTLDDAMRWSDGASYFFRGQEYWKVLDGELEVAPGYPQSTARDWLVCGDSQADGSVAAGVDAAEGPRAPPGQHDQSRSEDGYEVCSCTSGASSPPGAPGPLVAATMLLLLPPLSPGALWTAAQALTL

# structure_as_smiles, IC50
rows = [
    ("Cn1c(=O)n(Cc2ccc(C(=O)O)cc2)c(=O)c2cc(C#CCc3ccccc3)ccc21", "> 30 µM"),
]

###

# IC50 per entry for UniProtKB P03956
# Sequence (P03956 whole entry): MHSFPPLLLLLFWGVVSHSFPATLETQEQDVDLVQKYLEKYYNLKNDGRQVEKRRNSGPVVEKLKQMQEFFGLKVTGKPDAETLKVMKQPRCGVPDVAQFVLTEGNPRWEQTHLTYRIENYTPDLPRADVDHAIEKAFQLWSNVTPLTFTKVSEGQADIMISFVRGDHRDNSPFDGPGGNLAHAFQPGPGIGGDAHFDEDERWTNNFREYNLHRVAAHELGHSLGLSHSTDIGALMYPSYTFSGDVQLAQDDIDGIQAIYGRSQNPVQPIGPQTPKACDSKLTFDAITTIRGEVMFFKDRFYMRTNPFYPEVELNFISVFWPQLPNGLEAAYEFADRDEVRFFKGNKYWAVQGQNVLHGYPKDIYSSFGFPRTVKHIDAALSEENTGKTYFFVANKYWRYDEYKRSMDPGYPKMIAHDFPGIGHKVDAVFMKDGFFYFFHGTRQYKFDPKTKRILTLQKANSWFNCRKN

# compound, IC50
rows = [
    ("Cn1c(=O)n(Cc2ccc(C(=O)O)cc2)c(=O)c2cc(C#CCc3ccccc3)ccc21", "> 30 µM"),
    ("NC(=O)CC1CCCc2sc3nc(C(=O)NCc4ccc5c(c4)NC(=O)CO5)[nH]c(=O)c3c21 (racemic)", "> 2.5 µM"),
]

###

# test_target: Macrophage metalloelastase (Homo sapiens)
# Sequence (P39900 whole entry): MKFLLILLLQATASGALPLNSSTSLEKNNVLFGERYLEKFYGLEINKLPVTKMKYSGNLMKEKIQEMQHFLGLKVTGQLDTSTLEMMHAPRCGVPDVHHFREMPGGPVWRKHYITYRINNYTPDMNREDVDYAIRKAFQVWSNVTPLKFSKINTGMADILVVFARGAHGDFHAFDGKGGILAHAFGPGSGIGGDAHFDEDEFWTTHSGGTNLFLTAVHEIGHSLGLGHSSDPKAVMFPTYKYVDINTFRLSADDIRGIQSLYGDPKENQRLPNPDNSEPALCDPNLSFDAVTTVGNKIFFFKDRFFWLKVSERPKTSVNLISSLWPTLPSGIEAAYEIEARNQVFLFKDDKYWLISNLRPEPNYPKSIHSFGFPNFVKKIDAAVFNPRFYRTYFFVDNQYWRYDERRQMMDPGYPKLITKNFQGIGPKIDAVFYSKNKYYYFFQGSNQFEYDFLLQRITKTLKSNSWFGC
pIC50: −log10 of the molar value.
outcome_measure: pIC50

# molecule, value_reported
rows = [
    ("NC(=O)CC1CCCc2sc3nc(C(=O)NCc4ccc5c(c4)NC(=O)CO5)[nH]c(=O)c3c21 (racemic)", "< 5.60"),
]
